Reference source: PubChem BioAssay (NCATS)

- condition.description: Ebola virus entry assay, green fluorescence channel
Results with a measured potency or affinity are listed apart. The source made the active and inactive calls. The rule behind the calls is not given here.
quantity.kind: efficacy

These recorded examples may help you get a feel for the data.
>>> meas_value("CC(C)(C(=O)c1cccnc1)c1cccnc1")
"15.8% (inactive)"
>>> meas_value("CCC(Cc1c(I)cc(I)c(N)c1I)C(=O)O (centres undefined)")
"-15.6% (inactive)"
>>> meas_value("O=C(O)CCCC[P+](c1ccccc1)(c1ccccc1)c1ccccc1")
"19.9% (inactive)"
>>> meas_value("C[C@]12CC[C@H]3[C@@H](CCC4=CC(=O)CC[C@@H]43)[C@@H]1CC[C@@H]2OC(=O)CCc1ccco1")
"-14.7% (inactive)"
>>> meas_value("NS(=O)(=O)c1ccc(C(=O)O)cc1")
"11% (inactive)"

As a next step, examine the compound that follows.
Exercise: # input compound: COCCOC(=O)C1=C(C)NC(C)=C(C(=O)OC(C)C)C1c1cccc([N+](=O)[O-])c1 (centres undefined) ; wanted: its efficacy
Solution: 27.1% (inactive)

---

- measurement.protocol: qHTS for differential inhibitors of proliferation of Plasmodium falciparum line D10 (AID 1877);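 note: parasites grown with compound for 72 h before DNA staining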
- condition.description: series mostly up to 28.7 µM
Results filed as inconclusive are left out. The source made the active and inactive calls. Calls come from the whole dose curve; as a rule, active = well fitted curve in the direction sought with a large enough effect; inconclusive = small, poorly fitted or top-dose-only effect, or another doubt; inactive = no such curve, though single readings can be large or run the other way.
Outcomes you can answer with include only these: active, inactive

>>> discrete_label("CC(=O)N1CCN(c2ccc(OC[C@H]3CO[C@](Cn4ccnc4)(c4ccc(Cl)cc4Cl)O3)cc2)CC1")
"active"
>>> discrete_label("CN1C(=O)CCS(=O)(=O)C1c1ccc(Cl)cc1 (configuration not stated)")
"inactive"
>>> discrete_label("CCC1(c2ccc(N)cc2)CCC(=O)NC1=O (configuration not stated)")
"inactive"

Consider the record given below.
Exercise: Test call for this compound, please: "O=c1[nH]oc2c1CCNC2"
Solution: inactive

---

- Test system: W2
- measurement.protocol: qHTS profiling for inhibitors of Plasmodium falciparum proliferation (AID 504749); note: nearly all actives have a fitted effect of over 60% in size
- condition.description: P. falciparum in erythrocytes, SYBR Green DNA, 72 h; series mostly up to 28.7 µM
Records with an inconclusive call do not appear. Activity calls are given as the source filed them. The call rests on the fitted dose curve; in most records, active means well fitted inhibition curve with a large enough effect; inconclusive means small, poorly fitted or top-dose-only effect; inactive means flat fitted curve, though single readings scatter.
Permitted responses: Y (active), N (inactive)

These solved cases illustrate the format of a correct answer.
>>> discrete_label("CC(C)c1cccc(C(C)C)c1O")
"N"
>>> discrete_label("CCOP(=S)(OCC)Oc1ccc2c(C)c(Cl)c(=O)oc2c1")
"Y"
>>> discrete_label("O=C1Nc2ccc(Cl)cc2C(c2ccccc2Cl)=NC1O (stereo not drawn)")
"N"
>>> discrete_label("Clc1ccc(C(c2ccc(Cl)cc2)C(Cl)(Cl)Cl)cc1")
"Y"
>>> discrete_label("Oc1ccc(Cl)cc1")
"N"

Exercise: Query: recorded result category for CC(C)=CC1C(C(=O)OCN2C(=O)C3=C(CCCC3)C2=O)C1(C)C (stereo not drawn) in this test
Solution: N

Exercise: Which outcome did this test record for the compound "COP(=S)(OC)Oc1ccc(SC)c(C)c1" ?
Solution: N

Exercise: Kindly provide the recorded test outcome for the following compound: O=P1(N(CCCl)CCCl)NCCCO1 (stereo not drawn)
Solution: N

Exercise: Could you kindly confirm the outcome this assay logged for "CCC1(CC)C(=O)C=CNC1=O" ?
Solution: N

Exercise: Check the results log: what was the call for "Cc1ncsc1CCCl" ?
Solution: N

---

- condition.description: Ebola virus entry assay, green fluorescence channel
Entries with a potency or affinity are not part of this list. The source made the active and inactive calls. No rule for the calls is given here.
Entries annotated with measured efficacy

>>> meas_value("CNCc1ccccc1")
"-19.2% (inactive)"
>>> meas_value("CCOC(=O)c1ccc(N)cc1")
"26.1% (inactive)"
>>> meas_value("Oc1ccccc1C=NCc1ccccc1")
"-16.4% (inactive)"

Exercise: Field request: efficacy | item: CC(C(=O)O)c1ccc(C(=O)c2ccccc2)s1 (configuration not stated)
Solution: -17.9% (inactive)

Exercise: Look at this compound and give its reported efficacy. "COc1cc(C)nc(-n2nc(C)cc2OC)n1"
Solution: -14.1% (inactive)

Exercise: So what does the record say about efficacy for "Cc1cc(NS(=O)(=O)c2ccc(N)cc2)nc(C)n1" ?
Solution: -28.1% (inactive)

Exercise: Can you share its efficacy? I mean this compound: "CC1(C)Oc2ccc(C#N)cc2[C@@H](N2CCCC2=O)[C@@H]1O"
Solution: -10.5% (inactive)
